Target: T1, C10orf54 (antigen of the KD values in Table 42) (human, UniProt Q9H7M9 33-311, limits assumed)
T1 sequence: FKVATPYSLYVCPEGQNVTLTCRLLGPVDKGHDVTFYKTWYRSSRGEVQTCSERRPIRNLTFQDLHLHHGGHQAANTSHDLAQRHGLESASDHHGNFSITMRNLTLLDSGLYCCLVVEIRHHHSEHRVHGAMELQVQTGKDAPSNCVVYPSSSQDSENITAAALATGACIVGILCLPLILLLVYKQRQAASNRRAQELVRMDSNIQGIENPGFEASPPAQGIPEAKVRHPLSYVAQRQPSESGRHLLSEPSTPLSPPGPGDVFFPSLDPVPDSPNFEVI
Test: method and antigen form not stated
measured quantity: Kd (nM)
# value in nM; strip the unit string

A selection of reference data follows.
{"columns": ["binder", "Kd, nM"],
 "data": [
  ["murine monoclonal antibody 5B (antibody, V domains shown, Mouse hybridoma antibody) VH: QVQLQQSGAELVRPGVSVKISCKGSGYTFTDYGMHWVKQSHAKSLEWIGIIDTYYGDATYNQKFKGKATMTVDKSSSTAYMELARLTSEDSAIYYCARRAGNAMDYWGQGTSVTVSS VL: NIVMTQTPKFLLVSAGDRVTITCKASQSVSNDVAWYQQKPGQSPKLLIYYASNRYTGVPDRFTGSGYGTDFTFTISTVQAEDLAVYFCQQDYSSPRTFGGGTKLEIK", 0.974],
  ["murine monoclonal antibody 97A (antibody, V domains shown, Mouse hybridoma antibody) VH: QVQLQQSGAELVRPGVSVKISCKGSGYTFTDYGMHWVKQSHAKSLEWIGVIDTYYGDASNNQKFKGKATMTVDKSSSTAYMELARLTSEDSAIYYCARRAGNAMDYWGQGTSVTVSS VL: SIVMTQTPKFLLVSAGDRVAITCKASQSVSNDVAWYQQKPGQSPKLLIYYASNRYTGVPDRFTGSGYGTDFTFTISTVQAEDLAVYFCQQDYGSPRTFGGGTKLEIK", 1.99],
  ["murine monoclonal antibody 53A (antibody, V domains shown, Mouse hybridoma antibody) VH: EVQLQQSGPELVKPGASVKMSCKASGYTFTSYFMHWVKQKPGQGLEWIGYIYPYNDGTKYNEKFKGKATLTSDKSSSTAYMELSSLTSEDSAVYYCARFDYDTLRYWGQGTTLTVSS VL: DVVLTQTPLSLPVNIGDQASISCKSTKSLLNSDGFTYLDWYLQKPGQSPQLLIYLVSNRFSGVPDRFSGSGSGTDFTLKISRVEAEDLGVYYCFQSNYFPWTFGGGTKLEIK", 0.321]
]}

Would you kindly look at the next entry?
stdin: Please report the measured Kd for murine monoclonal antibody 141A (antibody, V domains shown, Mouse hybridoma antibody) VH: QVQLQQSGAELMKPGASVKISCKATGYTFSRYWIEWVKQRPGHGLEWIGEILPGSGSTNYNEKFKGKATFTADTSSNTAYMQLSSLTSEDSAVYYCAGEEVYDGYPWFGYWGQGTLVTVSA VL: QIVLSQSPAILSASPGEKVTMTCRASSSLSYMHWYQQKPGSSPKPWIYATSNLASGVPARFSGSGSGTSYSLTISRVEAEDAATYYCQQWSSNPYTFGGGTKLEIK
stdout: 1.27
